Reference source for all entries: patent US20260297083A1

Consider compounds characterized by their IC50 with Polθ polymerase domain (amino acids 1792-2590) (Homo sapiens, UniProt O75417).

| smilesNotation | measValue |
| --- | --- |
| Cc1cc(C(F)(F)F)cc(N2[C@H](C(=O)N(CC#Cc3cnc(C(=O)O)cn3)c3ccc(F)c(C)c3)CCS2(=O)=O)n1 | 1 to 50 nM |

Task item: Provide value of IC50 for this record tested with Polθ polymerase domain (amino acids 1792-2590) (Homo sapiens, UniProt O75417): Cc1cc(C(F)(F)F)cc(N2[C@H](C(=O)N(CC#Cc3ccc(NC(C)C)nn3)c3ccc(F)c(C)c3F)CCS2(=O)=O)n1
Reply: 1 to 50 nM

Task item: Provide value of IC50 for this record tested with Polθ polymerase domain (amino acids 1792-2590) (Homo sapiens, UniProt O75417): Cc1cc(C(F)(F)F)cc(N2[C@H](C(=O)N(CC#Cc3cnc(N4CCOCC4)nc3)c3ccc(F)c(C)c3)CCS2(=O)=O)n1
Reply: 1 to 50 nM

Task item: Provide value of IC50 for this record tested with Polθ polymerase domain (amino acids 1792-2590) (Homo sapiens, UniProt O75417): Cc1cc(C(F)(F)F)cc(N2C(=O)CC[C@H]2C(=O)N(CC#CCN2CCN(c3cnccn3)CC2)c2ccc(F)c(C)c2F)n1
Reply: 1 to 50 nM

Task item: Provide value of IC50 for this record tested with Polθ polymerase domain (amino acids 1792-2590) (Homo sapiens, UniProt O75417): Cc1cc(C(F)(F)F)cc(N2[C@H](C(=O)N(CC#Cc3cnc(S(N)(=O)=O)cn3)c3ccc(F)c(C)c3)CCS2(=O)=O)n1
Reply: > 101 nM

Task item: Provide value of IC50 for this record tested with Polθ polymerase domain (amino acids 1792-2590) (Homo sapiens, UniProt O75417): Cc1cc(C(F)(F)F)cc(N2C(=O)CC[C@H]2C(=O)N(CC#Cc2ccc(F)cn2)c2ccc(F)c(C)c2)n1
Reply: 1 to 50 nM

* * *

assayedTarget: Polθ polymerase domain (amino acids 1792-2590) (Homo sapiens, UniProt O75417)
Sequence (O75417 1792-2590): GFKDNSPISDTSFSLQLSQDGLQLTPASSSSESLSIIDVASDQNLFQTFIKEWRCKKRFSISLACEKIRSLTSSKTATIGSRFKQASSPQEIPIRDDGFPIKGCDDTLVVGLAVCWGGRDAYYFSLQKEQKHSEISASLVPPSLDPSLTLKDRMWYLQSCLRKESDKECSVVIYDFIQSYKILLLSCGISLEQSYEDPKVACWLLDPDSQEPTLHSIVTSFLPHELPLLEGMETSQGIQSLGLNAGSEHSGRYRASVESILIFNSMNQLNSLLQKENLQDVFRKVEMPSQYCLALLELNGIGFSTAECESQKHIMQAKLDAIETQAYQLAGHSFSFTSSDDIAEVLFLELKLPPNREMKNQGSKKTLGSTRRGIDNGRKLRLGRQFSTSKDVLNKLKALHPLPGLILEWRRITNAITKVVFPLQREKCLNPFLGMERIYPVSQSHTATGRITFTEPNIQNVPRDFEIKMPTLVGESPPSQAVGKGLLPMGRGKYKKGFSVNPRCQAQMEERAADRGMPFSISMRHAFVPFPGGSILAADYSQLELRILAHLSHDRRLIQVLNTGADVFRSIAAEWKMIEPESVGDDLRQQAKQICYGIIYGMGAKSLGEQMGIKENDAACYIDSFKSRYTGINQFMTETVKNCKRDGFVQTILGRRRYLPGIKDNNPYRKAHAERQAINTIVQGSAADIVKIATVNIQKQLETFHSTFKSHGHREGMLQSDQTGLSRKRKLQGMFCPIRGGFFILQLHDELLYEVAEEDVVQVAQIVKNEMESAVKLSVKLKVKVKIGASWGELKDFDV
pIC50: −log10 of the molar value.
# pIC50 per record follows

// known answers, use as guide
| molecule | pIC50 |
| --- | --- |
| Cc1cc(C(F)(F)F)cc(N2[C@H](C(=O)N(CC#Cc3cncn3C)c3ccc(F)c(C)c3)CCS2(=O)=O)n1 [compound 102] | 7.30 to 9.00 |
| Cc1cc(C(F)(F)F)cc(N2[C@H](C(=O)N(CC#Cc3cncc(C(=O)N4CCNCC4)n3)c3ccc(F)c(C)c3)CCS2(=O)=O)n1 [compound 72] | 7.30 to 9.00 |

Task item: Need pIC50 of Cc1cc(C(F)(F)F)cc(N2[C@H](C(=O)N(CC#Cc3cnc(N)cn3)c3ccc(F)c(C)c3)CCS2(=O)=O)n1 [compound 30] , thanks.
Reply: 7.30 to 9.00

Task item: Need pIC50 of Cc1cc(C(F)(F)F)cc(N2[C@H](C(=O)N(CC#Cc3cnc(N4C[C@H](C)N[C@@H](C)C4)cn3)c3ccc(F)c(C)c3)CCS2(=O)=O)n1 [compound 52] , thanks.
Reply: 7.30 to 9.00

Task item: Need pIC50 of C=CC(=O)Nc1cc(C#CCN(C(=O)[C@@H]2CCS(=O)(=O)N2c2cc(C(F)(F)F)cc(C)n2)c2ccc(F)c(C)c2)ccn1 [compound 139] , thanks.
Reply: 7.30 to 9.00

Task item: Need pIC50 of COc1ccc(C#CCN(C(=O)[C@@H]2CCS(=O)(=O)N2c2cc(C(F)(F)F)cc(C)n2)c2ccc(F)c(C)c2)nn1 [compound 27] , thanks.
Reply: 7.30 to 9.00

Task item: Need pIC50 of Cc1cc(C(F)(F)F)cc(N2[C@H](C(=O)N(CC#Cc3ccc(C(N)=O)cc3)c3ccc(F)c(C)c3)CCS2(=O)=O)n1 [compound 105] , thanks.
Reply: 7.30 to 9.00

Task item: Need pIC50 of Cc1ccc(F)c(N(CC#Cc2cnc(N3CCOCC3)cn2)C(=O)[C@@H]2CCS(=O)(=O)N2c2cc(C(F)(F)F)cc(C)n2)c1 [compound 40] , thanks.
Reply: 7.30 to 9.00

Task item: Need pIC50 of Cc1cc(C(F)(F)F)cc(N2[C@H](C(=O)N(CC#Cc3cncc(S(N)(=O)=O)n3)c3ccc(F)c(C)c3)CCS2(=O)=O)n1 [compound 66] , thanks.
Reply: 7.00 to 7.29

Task item: Need pIC50 of Cc1cc(C(F)(F)F)cc(N2[C@H](C(=O)N(CC#Cc3n[nH]c(=O)c4ccccc34)c3ccc(F)c(C)c3)CCS2(=O)=O)n1 [compound 101] , thanks.
Reply: 7.00 to 7.29

Task item: Need pIC50 of CCN1CCN(c2ccc(C#CCN(C(=O)[C@@H]3CCS(=O)(=O)N3c3cc(C(F)(F)F)cc(C)n3)c3ccc(F)c(C)c3)nn2)CC1 [compound 24] , thanks.
Reply: 7.30 to 9.00

Task item: Need pIC50 of Cc1cc(C(F)(F)F)cc(N2[C@H](C(=O)N(CC#Cc3cnc(N4C[C@H](C)N(C(C)C)[C@@H](C)C4)cn3)c3ccc(F)c(C)c3)CCS2(=O)=O)n1 [compound 53] , thanks.
Reply: 7.30 to 9.00

Task item: Need pIC50 of Cc1cc(C(F)(F)F)cc(N2[C@H](C(=O)N(CC#Cc3nccnc3C(N)=O)c3ccc(F)c(C)c3)CCS2(=O)=O)n1 [compound 64] , thanks.
Reply: 7.30 to 9.00

Task item: Need pIC50 of CCN(CC)c1ccc(C#CCN(C(=O)[C@@H]2CCS(=O)(=O)N2c2cc(C(F)(F)F)cc(C)n2)c2ccc(F)c(C)c2)nn1 [compound 25] , thanks.
Reply: 7.30 to 9.00

Task item: Need pIC50 of Cc1cc(C(F)(F)F)cc(N2C(=O)CC[C@H]2C(=O)N(CC#Cc2ccc(C(N)=O)nc2)c2ccc(F)c(C)c2)n1 [compound 12] , thanks.
Reply: < 7.00

Task item: Need pIC50 of Cc1cc(C(F)(F)F)cc(N2[C@H](C(=O)N(CC#Cc3cnc(N4CC5CCC(C4)O5)cn3)c3ccc(F)c(C)c3)CCS2(=O)=O)n1 [compound 48] , thanks.
Reply: 7.30 to 9.00

Task item: Need pIC50 of Cc1cc(C(F)(F)F)cc(N2C(=O)CC[C@H]2C(=O)N(CC#Cc2cccc(=O)[nH]2)c2ccc(F)c(C)c2)n1 [compound 7] , thanks.
Reply: 7.30 to 9.00

Task item: Need pIC50 of Cc1cc(C(F)(F)F)cc(N2[C@H](C(=O)N(CC#Cc3cnc(N4CCOCC4)c(C(F)(F)F)n3)c3ccc(F)c(C)c3)CCS2(=O)=O)n1 [compound 46] , thanks.
Reply: 7.30 to 9.00

Task item: Need pIC50 of Cc1cc(C(F)(F)F)cc(N2[C@H](C(=O)N(CC#Cc3cncc(C(=O)N4C[C@H](C)N[C@@H](C)C4)n3)c3ccc(F)c(C)c3)CCS2(=O)=O)n1 [compound 74] , thanks.
Reply: < 7.00

Task item: Need pIC50 of Cc1cc(C(F)(F)F)cc(N2[C@H](C(=O)N(CC#Cc3ccc(OC(F)F)nn3)c3ccc(F)c(C)c3)CCS2(=O)=O)n1 [compound 28] , thanks.
Reply: 7.30 to 9.00

Task item: Need pIC50 of CCN1CCN(c2cnc(C#CCN(C(=O)[C@@H]3CCC(=O)N3c3cc(C(F)(F)F)cc(C)n3)c3ccc(F)c(C)c3)cn2)CC1 [compound 11] , thanks.
Reply: 7.30 to 9.00

Task item: Need pIC50 of Cc1cc(C(F)(F)F)cc(N2[C@H](C(=O)N(CC#Cc3cc(F)c(C(N)=O)cn3)c3ccc(F)c(C)c3)CCS2(=O)=O)n1 [compound 122] , thanks.
Reply: 7.30 to 9.00

Task item: Need pIC50 of Cc1cc(C(F)(F)F)cc(N2[C@H](C(=O)N(CC#Cc3cnc(C(=O)N(C)C)cn3)c3ccc(F)c(C)c3)CCS2(=O)=O)n1 [compound 68] , thanks.
Reply: 7.30 to 9.00

Task item: Need pIC50 of CC(=O)Nc1cnc(C#CCN(C(=O)[C@@H]2CCS(=O)(=O)N2c2cc(C(F)(F)F)cc(C)n2)c2ccc(F)c(C)c2)cn1 [compound 34] , thanks.
Reply: 7.30 to 9.00
